The measurements presented in this section are drawn from patent US20200315241A1.

Provide the reported pH of each item.
Settings: nicotine salt complex

Example results:
1) CC(=O)O.CN1CCCC1c1cccnc1 (stereo not shown) [Nicotine acetate]; ~6.5
2) CN1CCCC1c1cccnc1.O=C(O)C(=O)O.O=C(O)CC(O)C(=O)O (stereo not shown) [Nicotine N-malate-N′-oxalate]; ~5.5

Okay, next one:
Prompt: Looking for the measured pH of CCC(=O)O.CN1CCCC1c1cccnc1 (stereo not shown) [Nicotine propionate] , can you help?
Response: ~6.5
